Where these numbers come from: patent US20170052184A1

I'd be grateful if you could share measured OD (A492) for these entries.
subject.of.test: T1, HCV Core1-169 (HCV-1, UniProt P26664 1-169)
T1 construct: also called recombinant HCV core antigen
T1 sequence: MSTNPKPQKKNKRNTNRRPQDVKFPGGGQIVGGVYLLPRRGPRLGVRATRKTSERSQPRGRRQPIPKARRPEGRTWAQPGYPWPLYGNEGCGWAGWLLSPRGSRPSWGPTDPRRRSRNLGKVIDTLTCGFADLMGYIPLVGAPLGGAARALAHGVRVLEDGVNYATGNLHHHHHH
test.name: EIA, core1-169 captured by mAb 14-153-229; also: test concentration or dose not given here
Supply the numeric figure in OD, leaving out any unit text.

For record HCV 208B-1024 (antibody, V domains shown) VH: EVQLVESGGDLVKPGGSLKLSCAASGFTFSNYGMSWVRQTPDKRLEWVATISSGGSYSYYPDSVKGRFTISRDNAKNILYLQMSSLKSEDTAMYYCASLYYGYGDYWGQGTAFTVSS VL: DVLMTQTPLSLPVSLGDQASISCRSSQSIVHSNGNTYLEWYLQKLGQSPKLLIYRVSNRFSGVPDRFSGSGSGTDFTLKISRVEAEDLGVYYCFQGSHVPWTFGGGTKLEIKR the listed OD (A492) is 0.31

For record HCV 208B-612 (antibody, V domains shown) VH: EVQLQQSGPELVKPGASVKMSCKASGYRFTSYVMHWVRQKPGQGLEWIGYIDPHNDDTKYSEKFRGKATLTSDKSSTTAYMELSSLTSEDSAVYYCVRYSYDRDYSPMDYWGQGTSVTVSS VL: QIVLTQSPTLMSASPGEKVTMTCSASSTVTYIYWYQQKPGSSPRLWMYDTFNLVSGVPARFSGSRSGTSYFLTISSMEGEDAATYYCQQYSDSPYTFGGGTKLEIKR the listed OD (A492) is 1.2

For record HCV 208A-830 (antibody, V domains shown) VH: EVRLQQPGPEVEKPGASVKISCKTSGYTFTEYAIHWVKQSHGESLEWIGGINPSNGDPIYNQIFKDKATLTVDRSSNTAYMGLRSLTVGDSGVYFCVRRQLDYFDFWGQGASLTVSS VL: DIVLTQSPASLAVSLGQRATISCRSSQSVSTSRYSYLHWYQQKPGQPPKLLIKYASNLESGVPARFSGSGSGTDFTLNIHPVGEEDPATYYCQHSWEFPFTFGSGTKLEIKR the listed OD (A492) is 2.09

For record HCV 208B-517 (antibody, V domains shown) VH: QVQLKQSGPGLVQPSQSLSITCTVSGFSLITHGVHWVRQSPGKGLEWLGVIWSGGSTDYNAAFISRLSISKDTSKSQVFLKMSSLQADDTAIYYCARNGGATAFDYWGQGTTLTVSS VL: DIVMTQSPATLSVTPGDRVSLSCRASQSISDYLHWYQQKSHESPRLLIKYASQSISGIPSRFRGSGSGSHFTLSINSVEPEDVGVYYCQNGHSFPWTFGGGTKLEIKR the listed OD (A492) is 0.97

For record HCV 208A-877 (antibody, V domains shown) VH: QLQQSGPELVKPGASVKISCKTSGYTFTENAMHWVKQSRGKSLEWIGGVNPNNGDTVYTQKFKGKATLTVAKSSSTAYMELRTMTCEESTVYYCASREPDFFDYWGQGSSVTVSS VL: QIVLTQSPAIMSVSPGEKVSMTCSASSSVTYMHWYQQKSGTSPKRWIYDTSELASGVPARFSGSGSGTTYSLTISSMEAEDAATYYCQQWSNKPLTFGAGTKLELKR the listed OD (A492) is 1.25

For record HCV 208B-395 (antibody, V domains shown) VH: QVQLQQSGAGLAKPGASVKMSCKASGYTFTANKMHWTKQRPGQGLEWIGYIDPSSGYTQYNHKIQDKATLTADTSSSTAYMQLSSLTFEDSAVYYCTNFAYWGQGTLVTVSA VL: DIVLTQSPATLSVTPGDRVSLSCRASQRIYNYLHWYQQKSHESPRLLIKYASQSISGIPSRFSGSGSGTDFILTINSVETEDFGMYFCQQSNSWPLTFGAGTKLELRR the listed OD (A492) is 1.95

For record HCV 208A-210 (antibody, V domains shown) VH: QVQLQQSGPELVKPGASMRISCKASGYTFTSYYVHWIKQRPGQGLEWIGCIYPGDVNTDYNEKFKGKATLTADKSSSTAYMQVSTLTSEDSAIYFCVLYYYGSFAYWGQGTLVTVSA VL: EIVLTQSPAITAASLGQNVTITCRASSSVSYMHWYRQKSGTSPQLWIYEISRRASGVPARFRASGSGTSYSLTISSMEAEDAAIYYCQQWNYPLTFGAGTKLEVKR the listed OD (A492) is 0.87

For record HCV 208A-352 (antibody, V domains shown) VH: QGQMQQSGAELVKPGASVKLSCKTSGFTFSSSFISWLKQKPGQSLEWIAWIYAGTGNTNYNQKFTDKAQLTVDTSSSTAYMQFSSLTTEDSAIYYCAISGTGFTYWGQGTLVTVSA VL: DVLMAQTPLSLPVTLGDQASISCRSSQSLVHSNGNTYLEWFLQKPGQSPKLLIYNVSNRFSGVPDRFSGSGSGTDFTLKISRVEAEDLGVYYCFQGSHVPLTFGSGTKLEIKR the listed OD (A492) is 0.53

For record HCV 208B-515 (antibody, V domains shown) VH: QVQLQQPGAELVKPGASLKLSCRASGYTFTSYWIHWVKQRPGQGLEWIGEIDPSDSYTNYNQKFKGKATLTVDKSSRAAYMQLSSLTSEDSAVYYCARHYYGVFDSWGQGTKLTVSS VL: QIVFTQYPAIMSASLGERVTMTCTASSSVTSSYLHWFQQKPGSSPKLWIYSTSNPGSGVPARFSGRGSGTSYSLSISSMEAEDAATYYCLQFHRSPWTFGGGTKLEIRR the listed OD (A492) is 0.08
